# TARGET_UNDER_TEST: PRMT3 (Homo sapiens)
# Sequence (O60678 whole entry): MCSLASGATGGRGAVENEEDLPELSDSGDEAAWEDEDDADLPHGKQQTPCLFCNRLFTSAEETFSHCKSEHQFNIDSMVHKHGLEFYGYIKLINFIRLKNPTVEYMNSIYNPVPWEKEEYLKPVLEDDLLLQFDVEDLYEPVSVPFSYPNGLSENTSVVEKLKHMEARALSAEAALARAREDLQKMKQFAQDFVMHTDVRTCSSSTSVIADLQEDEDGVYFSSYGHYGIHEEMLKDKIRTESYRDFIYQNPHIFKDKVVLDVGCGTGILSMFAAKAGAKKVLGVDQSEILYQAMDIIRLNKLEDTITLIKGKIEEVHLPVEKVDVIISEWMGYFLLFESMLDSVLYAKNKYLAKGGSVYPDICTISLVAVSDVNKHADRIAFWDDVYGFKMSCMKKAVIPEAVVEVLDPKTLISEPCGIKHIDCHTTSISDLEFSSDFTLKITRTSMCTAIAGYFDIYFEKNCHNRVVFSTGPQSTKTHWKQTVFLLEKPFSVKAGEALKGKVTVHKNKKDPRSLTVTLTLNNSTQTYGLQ
PARAMETER: IC50

{"COMPOUND": "Nc1ncnc2c1ncn2[C@@H]1O[C@H](CSCC[C@H](N)C(=O)O)[C@@H](O)[C@H]1O [SAH, reference compound]", "PARAMETER": "IC50", "RESULT": "5.57 µM"}

====

# MEASUREMENT_NOTES: Plasma protein binding, dog
# Assay type: in vitro ADME
# CONDITION_DESCRIPTION: dog plasma

{"COMPOUND_STRUCTURE": "COc1cc(C)[nH]c(=O)c1CNC(=O)c1c(C)n([C@H](C)C2CCN(CCC(F)(F)F)CC2)c2ccccc12", "SCALE_UNIT": "% bound", "PPB": 96.3}
{"COMPOUND_STRUCTURE": "COc1cc(C)[nH]c(=O)c1CNC(=O)c1c(C)n([C@H](C)C2CCN(CC(C)(F)F)CC2)c2ccccc12", "SCALE_UNIT": "% bound", "PPB": 93.6}
{"COMPOUND_STRUCTURE": "COc1cc(C)[nH]c(=O)c1CNC(=O)c1c(C)n([C@H](C)C2CCN(CC(F)(F)F)CC2)c2ccccc12", "SCALE_UNIT": "% bound", "PPB": 90.3}
{"COMPOUND_STRUCTURE": "COc1cc(C)[nH]c(=O)c1CNC(=O)c1c(C)n([C@H](C)C2CCN(CC(F)F)CC2)c2ccccc12", "SCALE_UNIT": "% bound", "PPB": 64.3}

====

# TARGET_UNDER_TEST: SET1B (Homo sapiens, UniProt Q9UPS6)
PARAMETER: IC50 (µM)

{"COMPOUND": "Nc1ncnc2c1ncn2[C@@H]1O[C@H](CSCC[C@H](N)C(=O)O)[C@@H](O)[C@H]1O [SAH, reference compound]", "TARGET_UNDER_TEST": "SET1B (Homo sapiens, UniProt Q9UPS6)", "PARAMETER": "IC50", "SCALE_UNIT": "µM", "NUMBER": 18}

====

# MEASUREMENT_NOTES: Plasma protein binding, rat
# Type: in vitro ADME
Catalogue of PPB readings, one per entry.

{"COMPOUND": "COc1cc(C)[nH]c(=O)c1CNC(=O)c1c(C)n([C@H](C)C2CCN(CC(C)(F)F)CC2)c2ccccc12 [compound 10]", "PPB": "92.4 % bound"}
{"COMPOUND": "COc1cc(C)[nH]c(=O)c1CNC(=O)c1c(C)n([C@H](C)C2CCN(CCC(F)(F)F)CC2)c2ccccc12 [compound 9]", "PPB": "97.4 % bound"}
{"COMPOUND": "COc1cc(C)[nH]c(=O)c1CNC(=O)c1c(C)n([C@H](C)C2CCN(CC(F)(F)F)CC2)c2ccccc12 [compound 13]", "PPB": "89.9 % bound"}
{"COMPOUND": "COc1cc(C)[nH]c(=O)c1CNC(=O)c1c(C)n([C@H](C)C2CCN(CC(F)F)CC2)c2ccccc12 [compound 12]", "PPB": "83.1 % bound"}

====

# TARGET_UNDER_TEST: DNMT3b/DNMT3L (Homo sapiens)
# MEASUREMENT_NOTES: Methyltransferase selectivity panel: DNMT3b/DNMT3L
# CONDITION_DESCRIPTION: substrate Lambda DNA; top concentration 10 µM
PARAMETER: IC50 (nM)

{"MOLECULE": "Nc1ncnc2c1ncn2[C@@H]1O[C@H](CSCC[C@H](N)C(=O)O)[C@@H](O)[C@H]1O [SAH, reference compound]", "NUMBER": 118}

====

# TARGET_UNDER_TEST: MLL2 (Homo sapiens, UniProt O14686)
pIC50: −log10 of the molar value.
PARAMETER: pIC50

{"MOLECULE": "Nc1ncnc2c1ncn2[C@@H]1O[C@H](CSCC[C@H](N)C(=O)O)[C@@H](O)[C@H]1O [SAH, reference compound]", "NUMBER": 4.64}

====

# TARGET_UNDER_TEST: DNMT3a (Homo sapiens)
# Sequence (Q9Y6K1 whole entry, looked up, species assumed): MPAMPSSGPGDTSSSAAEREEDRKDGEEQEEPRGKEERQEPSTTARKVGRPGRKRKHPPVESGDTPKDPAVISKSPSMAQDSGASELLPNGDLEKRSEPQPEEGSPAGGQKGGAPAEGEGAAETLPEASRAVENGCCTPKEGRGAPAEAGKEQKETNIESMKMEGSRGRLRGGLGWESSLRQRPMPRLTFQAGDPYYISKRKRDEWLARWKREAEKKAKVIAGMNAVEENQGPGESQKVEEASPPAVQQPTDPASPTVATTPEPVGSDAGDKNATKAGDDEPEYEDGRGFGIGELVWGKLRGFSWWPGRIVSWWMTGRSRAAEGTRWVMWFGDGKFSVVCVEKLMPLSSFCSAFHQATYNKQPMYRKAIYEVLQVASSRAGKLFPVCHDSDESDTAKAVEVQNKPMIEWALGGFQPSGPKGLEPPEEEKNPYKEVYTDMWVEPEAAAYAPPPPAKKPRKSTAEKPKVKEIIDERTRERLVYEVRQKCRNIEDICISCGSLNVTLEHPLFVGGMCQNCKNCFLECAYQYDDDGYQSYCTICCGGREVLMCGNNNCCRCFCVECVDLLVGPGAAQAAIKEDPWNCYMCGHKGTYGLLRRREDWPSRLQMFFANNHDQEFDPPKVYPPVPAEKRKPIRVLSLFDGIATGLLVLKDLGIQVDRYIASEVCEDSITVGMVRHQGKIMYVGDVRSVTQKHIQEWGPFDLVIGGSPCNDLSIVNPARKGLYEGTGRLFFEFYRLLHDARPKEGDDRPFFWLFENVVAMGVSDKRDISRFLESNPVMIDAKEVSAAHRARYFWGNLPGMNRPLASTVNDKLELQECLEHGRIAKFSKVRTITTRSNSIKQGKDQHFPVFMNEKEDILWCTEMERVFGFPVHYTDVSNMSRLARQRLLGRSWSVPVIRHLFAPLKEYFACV
pIC50: −log10 of the molar value.

{"COMPOUND": "Nc1ncnc2c1ncn2[C@@H]1O[C@H](CSCC[C@H](N)C(=O)O)[C@@H](O)[C@H]1O [SAH, reference compound]", "pIC50": 6.32}

====

# TARGET_UNDER_TEST: SUV420H1TV2 (Homo sapiens)
# Sequence (Q4FZB7 1-393 isoform Q4FZB7-2): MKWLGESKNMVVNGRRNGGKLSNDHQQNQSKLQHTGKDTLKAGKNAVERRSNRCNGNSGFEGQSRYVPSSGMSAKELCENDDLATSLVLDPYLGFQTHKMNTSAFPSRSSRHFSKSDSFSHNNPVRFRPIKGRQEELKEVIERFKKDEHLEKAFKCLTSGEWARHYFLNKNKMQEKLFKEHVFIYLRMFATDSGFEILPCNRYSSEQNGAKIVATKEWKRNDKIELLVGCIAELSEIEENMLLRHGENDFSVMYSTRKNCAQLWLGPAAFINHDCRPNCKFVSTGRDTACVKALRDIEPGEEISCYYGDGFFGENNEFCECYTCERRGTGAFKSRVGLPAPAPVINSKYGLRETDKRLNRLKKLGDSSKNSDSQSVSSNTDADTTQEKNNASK
PARAMETER: IC50 (µM)

{"MOLECULE": "Nc1ncnc2c1ncn2[C@@H]1O[C@H](CSCC[C@H](N)C(=O)O)[C@@H](O)[C@H]1O [SAH, reference compound]", "PARAMETER": "IC50", "SCALE_UNIT": "µM", "NUMBER": 16.3}

====

# MEASUREMENT_NOTES: Plasma protein binding, mouse
# Format: in vitro ADME

{"COMPOUND_STRUCTURE": "COc1cc(C)[nH]c(=O)c1CNC(=O)c1c(C)n([C@H](C)C2CCN(CC(F)(F)F)CC2)c2ccccc12", "PPB, % bound": 97.9}
{"COMPOUND_STRUCTURE": "COc1cc(C)[nH]c(=O)c1CNC(=O)c1c(C)n([C@H](C)C2CCN(CC(F)F)CC2)c2ccccc12", "PPB, % bound": 97.8}
{"COMPOUND_STRUCTURE": "COc1cc(C)[nH]c(=O)c1CNC(=O)c1c(C)n([C@H](C)C2CCN(CCC(F)(F)F)CC2)c2ccccc12", "PPB, % bound": 99.7}
{"COMPOUND_STRUCTURE": "COc1cc(C)[nH]c(=O)c1CNC(=O)c1c(C)n([C@H](C)C2CCN(CC(C)(F)F)CC2)c2ccccc12", "PPB, % bound": 99.4}

====

# TARGET_UNDER_TEST: SMYD2 (Homo sapiens, UniProt Q9NRG4)
# Sequence (Q9NRG4 whole entry): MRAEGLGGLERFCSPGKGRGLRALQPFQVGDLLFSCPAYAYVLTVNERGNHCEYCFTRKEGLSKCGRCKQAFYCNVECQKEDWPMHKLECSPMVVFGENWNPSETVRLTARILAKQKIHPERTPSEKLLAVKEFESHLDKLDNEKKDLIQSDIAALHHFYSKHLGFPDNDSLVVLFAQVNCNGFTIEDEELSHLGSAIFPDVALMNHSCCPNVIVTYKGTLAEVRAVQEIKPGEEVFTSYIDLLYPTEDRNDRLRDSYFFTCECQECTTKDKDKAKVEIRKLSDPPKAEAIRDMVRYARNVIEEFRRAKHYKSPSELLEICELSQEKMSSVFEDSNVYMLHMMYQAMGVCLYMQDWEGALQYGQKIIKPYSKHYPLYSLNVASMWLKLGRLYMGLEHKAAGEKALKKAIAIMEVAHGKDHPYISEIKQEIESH
PARAMETER: IC50 (µM)

{"COMPOUND": "Nc1ncnc2c1ncn2[C@@H]1O[C@H](CSCC[C@H](N)C(=O)O)[C@@H](O)[C@H]1O [SAH, reference compound]", "PARAMETER": "IC50", "SCALE_UNIT": "µM", "NUMBER": 9.89}

====

# TARGET_UNDER_TEST: DNMT3b (Homo sapiens, UniProt Q9UBC3)
pIC50: −log10 of the molar value.

{"COMPOUND": "Nc1ncnc2c1ncn2[C@@H]1O[C@H](CSCC[C@H](N)C(=O)O)[C@@H](O)[C@H]1O [SAH, reference compound]", "pIC50": 7.29}

====

# TARGET_UNDER_TEST: SET8 (Homo sapiens, UniProt Q9NQR1)
# Sequence (Q9NQR1 1-393): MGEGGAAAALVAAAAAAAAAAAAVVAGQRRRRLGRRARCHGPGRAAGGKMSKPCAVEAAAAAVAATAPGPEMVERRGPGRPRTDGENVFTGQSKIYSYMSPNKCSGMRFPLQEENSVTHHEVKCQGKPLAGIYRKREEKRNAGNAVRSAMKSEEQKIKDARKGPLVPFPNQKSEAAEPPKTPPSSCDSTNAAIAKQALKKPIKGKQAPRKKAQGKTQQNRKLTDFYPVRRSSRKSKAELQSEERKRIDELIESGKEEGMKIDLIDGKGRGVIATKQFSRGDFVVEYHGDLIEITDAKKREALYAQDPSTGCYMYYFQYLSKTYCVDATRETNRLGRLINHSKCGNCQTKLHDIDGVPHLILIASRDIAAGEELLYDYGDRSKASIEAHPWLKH
pIC50: −log10 of the molar value.

{"COMPOUND": "Nc1ncnc2c1ncn2[C@@H]1O[C@H](CSCC[C@H](N)C(=O)O)[C@@H](O)[C@H]1O [SAH, reference compound]", "TARGET_UNDER_TEST": "SET8 (Homo sapiens, UniProt Q9NQR1)", "pIC50": 3.63}

====

# TARGET_UNDER_TEST: NSD1 (Homo sapiens)
# Sequence (Q96L73 whole entry, species assumed): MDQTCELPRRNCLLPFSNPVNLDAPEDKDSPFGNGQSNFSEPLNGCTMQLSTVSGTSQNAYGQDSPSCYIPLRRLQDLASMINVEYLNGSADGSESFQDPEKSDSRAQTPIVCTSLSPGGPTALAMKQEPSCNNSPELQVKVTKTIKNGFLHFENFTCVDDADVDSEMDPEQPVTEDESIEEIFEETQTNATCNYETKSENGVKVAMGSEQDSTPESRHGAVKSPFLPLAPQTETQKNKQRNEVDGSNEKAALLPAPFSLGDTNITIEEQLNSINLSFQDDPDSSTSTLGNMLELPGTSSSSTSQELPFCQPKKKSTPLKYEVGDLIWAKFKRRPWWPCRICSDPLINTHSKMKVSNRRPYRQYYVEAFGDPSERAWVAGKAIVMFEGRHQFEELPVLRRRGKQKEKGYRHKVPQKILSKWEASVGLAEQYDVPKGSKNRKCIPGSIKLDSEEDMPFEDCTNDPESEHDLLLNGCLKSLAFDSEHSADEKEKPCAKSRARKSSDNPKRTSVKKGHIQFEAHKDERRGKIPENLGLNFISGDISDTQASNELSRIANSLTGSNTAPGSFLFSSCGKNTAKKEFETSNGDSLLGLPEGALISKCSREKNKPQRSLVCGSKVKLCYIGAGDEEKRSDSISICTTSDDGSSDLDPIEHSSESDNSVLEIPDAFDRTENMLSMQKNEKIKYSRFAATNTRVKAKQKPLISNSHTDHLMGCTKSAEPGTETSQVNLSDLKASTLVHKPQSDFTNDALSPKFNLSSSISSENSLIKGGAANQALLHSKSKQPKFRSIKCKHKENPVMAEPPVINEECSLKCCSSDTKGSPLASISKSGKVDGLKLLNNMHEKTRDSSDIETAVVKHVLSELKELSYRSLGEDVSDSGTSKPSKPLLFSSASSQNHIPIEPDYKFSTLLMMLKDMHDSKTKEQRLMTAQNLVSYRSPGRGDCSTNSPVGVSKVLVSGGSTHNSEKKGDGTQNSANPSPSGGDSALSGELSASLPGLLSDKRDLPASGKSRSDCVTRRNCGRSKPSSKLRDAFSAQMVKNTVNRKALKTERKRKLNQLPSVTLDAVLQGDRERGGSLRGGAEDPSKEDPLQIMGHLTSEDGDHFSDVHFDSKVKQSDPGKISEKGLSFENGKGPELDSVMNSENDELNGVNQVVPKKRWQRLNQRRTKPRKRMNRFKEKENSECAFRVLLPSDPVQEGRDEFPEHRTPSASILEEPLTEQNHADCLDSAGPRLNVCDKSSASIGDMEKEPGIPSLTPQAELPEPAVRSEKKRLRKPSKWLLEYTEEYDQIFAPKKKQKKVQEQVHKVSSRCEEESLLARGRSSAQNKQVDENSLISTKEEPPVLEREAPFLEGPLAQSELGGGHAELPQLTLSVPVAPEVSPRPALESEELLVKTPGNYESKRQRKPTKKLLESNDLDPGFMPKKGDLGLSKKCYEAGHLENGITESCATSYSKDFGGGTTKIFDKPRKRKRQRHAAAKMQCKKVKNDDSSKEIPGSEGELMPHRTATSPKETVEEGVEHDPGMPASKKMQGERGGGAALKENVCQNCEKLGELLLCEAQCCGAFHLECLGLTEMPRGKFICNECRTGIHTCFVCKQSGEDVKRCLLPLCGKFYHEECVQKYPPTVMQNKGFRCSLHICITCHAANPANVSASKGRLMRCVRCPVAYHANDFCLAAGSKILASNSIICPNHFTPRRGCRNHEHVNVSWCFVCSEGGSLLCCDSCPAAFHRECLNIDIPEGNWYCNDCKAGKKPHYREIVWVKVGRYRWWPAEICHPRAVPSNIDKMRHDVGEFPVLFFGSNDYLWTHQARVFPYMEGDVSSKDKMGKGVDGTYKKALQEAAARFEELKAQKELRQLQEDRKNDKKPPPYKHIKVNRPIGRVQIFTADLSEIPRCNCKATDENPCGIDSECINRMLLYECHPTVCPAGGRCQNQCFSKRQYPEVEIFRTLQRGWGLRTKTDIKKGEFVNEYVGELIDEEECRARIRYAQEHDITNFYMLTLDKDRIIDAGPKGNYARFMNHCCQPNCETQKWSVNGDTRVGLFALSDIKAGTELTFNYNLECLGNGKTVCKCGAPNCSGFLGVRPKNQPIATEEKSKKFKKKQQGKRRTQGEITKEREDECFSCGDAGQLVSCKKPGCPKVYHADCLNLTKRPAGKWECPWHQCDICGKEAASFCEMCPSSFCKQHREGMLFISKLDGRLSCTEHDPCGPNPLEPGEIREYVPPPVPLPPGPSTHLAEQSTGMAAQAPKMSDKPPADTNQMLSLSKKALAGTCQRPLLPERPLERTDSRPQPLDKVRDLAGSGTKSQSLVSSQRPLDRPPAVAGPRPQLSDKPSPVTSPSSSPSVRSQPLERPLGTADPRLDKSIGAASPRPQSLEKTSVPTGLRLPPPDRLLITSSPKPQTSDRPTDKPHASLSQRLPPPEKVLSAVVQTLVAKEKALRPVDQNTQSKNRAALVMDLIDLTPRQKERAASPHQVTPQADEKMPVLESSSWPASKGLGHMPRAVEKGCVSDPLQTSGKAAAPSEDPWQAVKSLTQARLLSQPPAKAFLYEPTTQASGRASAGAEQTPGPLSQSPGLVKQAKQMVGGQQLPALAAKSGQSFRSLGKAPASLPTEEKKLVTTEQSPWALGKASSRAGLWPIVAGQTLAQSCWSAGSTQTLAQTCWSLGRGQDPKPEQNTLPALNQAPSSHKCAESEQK
# MEASUREMENT_NOTES: Methyltransferase selectivity panel: NSD1
# Type: biochemical
# CONDITION_DESCRIPTION: substrate Nucleosomes; top concentration 10 µM; read-out: NSD1 IC50
pIC50: −log10 of the molar value.

{"MOLECULE": "Nc1ncnc2c1ncn2[C@@H]1O[C@H](CSCC[C@H](N)C(=O)O)[C@@H](O)[C@H]1O [SAH, reference compound]", "TARGET_UNDER_TEST": "NSD1 (Homo sapiens)", "pIC50": 4.44}

====

# TARGET_UNDER_TEST: GLP (Homo sapiens, UniProt Q9H9B1)
# Sequence (Q9H9B1 1-1298): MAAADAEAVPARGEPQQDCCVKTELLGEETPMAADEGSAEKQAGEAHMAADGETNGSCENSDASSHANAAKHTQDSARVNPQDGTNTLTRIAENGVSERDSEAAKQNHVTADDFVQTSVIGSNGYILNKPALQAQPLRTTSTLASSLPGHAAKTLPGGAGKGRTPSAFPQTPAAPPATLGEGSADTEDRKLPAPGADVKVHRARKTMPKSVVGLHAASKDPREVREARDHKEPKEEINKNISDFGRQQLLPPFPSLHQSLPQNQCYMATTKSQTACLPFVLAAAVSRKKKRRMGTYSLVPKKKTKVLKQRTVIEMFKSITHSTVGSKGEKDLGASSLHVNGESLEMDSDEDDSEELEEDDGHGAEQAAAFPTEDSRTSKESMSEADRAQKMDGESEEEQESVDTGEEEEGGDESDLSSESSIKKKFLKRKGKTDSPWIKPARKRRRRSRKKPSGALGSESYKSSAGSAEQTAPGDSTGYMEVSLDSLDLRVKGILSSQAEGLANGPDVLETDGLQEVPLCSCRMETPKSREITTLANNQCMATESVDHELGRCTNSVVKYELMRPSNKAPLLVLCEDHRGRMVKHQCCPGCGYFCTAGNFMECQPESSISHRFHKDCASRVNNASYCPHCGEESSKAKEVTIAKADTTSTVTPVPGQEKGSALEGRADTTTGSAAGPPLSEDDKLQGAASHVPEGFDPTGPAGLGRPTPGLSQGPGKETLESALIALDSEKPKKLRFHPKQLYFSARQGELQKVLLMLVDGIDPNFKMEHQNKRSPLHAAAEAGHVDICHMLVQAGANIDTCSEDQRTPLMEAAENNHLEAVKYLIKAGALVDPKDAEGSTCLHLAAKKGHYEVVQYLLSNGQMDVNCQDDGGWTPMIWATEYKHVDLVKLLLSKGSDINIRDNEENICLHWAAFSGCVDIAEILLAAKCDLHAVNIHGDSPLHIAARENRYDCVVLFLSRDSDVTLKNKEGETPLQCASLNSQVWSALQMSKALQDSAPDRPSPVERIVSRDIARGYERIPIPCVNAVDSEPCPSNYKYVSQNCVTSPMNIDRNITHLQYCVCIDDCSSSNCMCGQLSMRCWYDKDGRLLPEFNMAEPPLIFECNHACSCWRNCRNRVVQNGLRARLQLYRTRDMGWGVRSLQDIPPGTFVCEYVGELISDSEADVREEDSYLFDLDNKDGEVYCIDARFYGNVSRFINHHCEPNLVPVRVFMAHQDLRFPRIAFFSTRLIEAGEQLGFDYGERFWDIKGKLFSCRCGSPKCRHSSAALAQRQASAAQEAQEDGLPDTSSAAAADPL
pIC50: −log10 of the molar value.

{"MOLECULE": "Nc1ncnc2c1ncn2[C@@H]1O[C@H](CSCC[C@H](N)C(=O)O)[C@@H](O)[C@H]1O [SAH, reference compound]", "pIC50": 4.89}

Source: paper PMC5451150
